# study-target: Recombinant human IL-2 (human, UniProt P60568 21-153)
# test-description: cell-based or functional assay
Listing of entries alongside the reported Fold EC50 shift of IL-2-induced proliferation, CTLL-2 (muRαβγ).
readout: Fold EC50 shift of IL-2-induced proliferation, CTLL-2 (muRαβγ) (fold)

XPA.92.042 (antibody, V domains shown, Tested as purified full-length human IgG) VH: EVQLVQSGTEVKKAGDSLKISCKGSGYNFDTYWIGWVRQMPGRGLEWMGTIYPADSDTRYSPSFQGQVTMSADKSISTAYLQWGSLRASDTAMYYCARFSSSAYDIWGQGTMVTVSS VL: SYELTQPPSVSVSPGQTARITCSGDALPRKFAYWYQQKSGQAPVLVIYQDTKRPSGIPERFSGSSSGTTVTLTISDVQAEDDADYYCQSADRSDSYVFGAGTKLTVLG ... 156
XPA.92.099 (antibody, V domains shown, Tested as purified full-length human IgG; also called mAb99; clone 99) VH: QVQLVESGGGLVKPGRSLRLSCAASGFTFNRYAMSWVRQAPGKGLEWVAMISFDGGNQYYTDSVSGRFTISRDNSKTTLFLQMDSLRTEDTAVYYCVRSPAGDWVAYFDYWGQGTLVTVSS VL: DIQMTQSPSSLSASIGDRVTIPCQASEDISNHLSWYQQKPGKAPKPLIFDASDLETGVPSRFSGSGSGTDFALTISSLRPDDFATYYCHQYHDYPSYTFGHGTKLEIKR ... 54
XPA.92.041 (antibody, V domains shown, Tested as purified full-length human IgG) VH: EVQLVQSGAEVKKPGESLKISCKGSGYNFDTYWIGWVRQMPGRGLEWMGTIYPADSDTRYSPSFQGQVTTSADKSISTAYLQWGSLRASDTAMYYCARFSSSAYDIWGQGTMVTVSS VL: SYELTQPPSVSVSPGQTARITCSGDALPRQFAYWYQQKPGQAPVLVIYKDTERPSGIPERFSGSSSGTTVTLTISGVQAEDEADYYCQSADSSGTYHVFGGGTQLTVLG ... 58
XPA.92.019 (antibody, V domains shown, Tested as purified full-length human IgG; also called mAb19) VH: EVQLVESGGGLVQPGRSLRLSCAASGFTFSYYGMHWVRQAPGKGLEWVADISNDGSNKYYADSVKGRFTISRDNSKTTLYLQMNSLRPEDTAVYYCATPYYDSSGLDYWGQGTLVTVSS VL: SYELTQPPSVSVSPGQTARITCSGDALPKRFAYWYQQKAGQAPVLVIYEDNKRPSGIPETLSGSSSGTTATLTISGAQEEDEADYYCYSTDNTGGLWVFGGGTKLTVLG ... 130
